Please respond with reported GI50 for every item in the list.
test: Cytotoxicity in breast MDA-MB-435 cell line.; format: functional; settings: Homo sapiens

Look up GI50 for the entries below, preserving their order.
1. COc1cc2c(cc1OC)[C@H]1C(=O)c3c(ccc4ccccc34)[C@H]1N(CCCCl)C2=O
2. COC(=O)CCCN1C(=O)c2cc(OC)c(OC)cc2[C@H]2C(=O)c3cc4c(cc3[C@H]21)OCO4
3. COc1cc2c(cc1OC)[C@H]1C(=O)c3cc4c(cc3[C@H]1N(CCCN=[N+]=[N-])C2=O)OCO4

Resp:
1. 2480 nM
2. 2890 nM
3. 1270 nM

---

assay: Cytotoxicity in prostate DU-145 cell line.; assay type: functional; settings: Homo sapiens
endpoint-label: GI50 (µM)
Numbers only, in µM.

Provide each entry's GI50 from the list below.
1. COc1cc2c(cc1OC)[C@H]1C(=O)c3cc4c(cc3[C@H]1N(Cc1ccccc1)C2=O)OCO4
2. COC(=O)CCCN1C(=O)c2cc(OC)c(OC)cc2[C@H]2C(=O)c3cc4c(cc3[C@H]21)OCO4
3. CCOC(=O)CCCN1C(=O)c2cc(OC)c(OC)cc2[C@H]2C(=O)c3cc4c(cc3[C@H]21)OCO4
4. C/C=C(/C=O)CCN1C(=O)c2cc(OC)c(OC)cc2[C@H]2C(=O)c3cc4c(cc3[C@H]21)OCO4
5. CCC[n+]1cc2cc(OC)c(OC)cc2c2c1-c1cc3c(cc1C2)OCO3.[Cl-]
6. COc1cc2c(cc1OC)[C@H]1C(=O)c3c(ccc4ccccc34)[C@H]1N(CCCCl)C2=O
7. COc1cc2c(cc1OC)[C@H]1C(=O)c3cc4c(cc3[C@H]1N(CCCCl)C2=O)OCO4
8. COc1cc2c(cc1OC)[C@H]1C(=O)c3cc4c(cc3[C@H]1N(CC(F)(F)F)C2=O)OCO4

Resp:
0.55
0.63
3.07
0.22
10.5
5.49
0.03
7.5

---

Give measured GI50 for each item. Keep answers brief.
assay: Cytotoxicity in CNS SF-539 cell line.; type: functional; conditions: Homo sapiens
Numbers only, in µM.

COc1cc2c(cc1OC)[C@H]1C(=O)c3c(ccc4ccccc34)[C@H]1N(CCCCl)C2=O
14.7
COc1cc2c(cc1OC)[C@H]1C(=O)c3cc4c(cc3[C@H]1N(CCCN=[N+]=[N-])C2=O)OCO4
0.33
CCCC[n+]1cc2cc(OC)c(OC)cc2c2c1-c1cc3c(cc1C2)OCO3.[Cl-]
2.16
COc1cc2c(cc1OC)[C@H]1C(=O)c3cc4c(cc3[C@H]1N(CC(F)(F)F)C2=O)OCO4
7.63
CCCN1C(=O)c2cc(OC)c(OC)cc2[C@H]2C(=O)c3cc4c(cc3[C@H]21)OCO4
0.44

I'm hoping you can list GI50 for every molecule here, please.
1. CCCN1Cc2cc(OC)c(OC)cc2[C@@H]2[C@H]1c1cc3c(cc1[C@@H]2O)OCO3
2. COc1cc2c(cc1OC)[C@H]1C(=O)c3cc4c(cc3[C@H]1N(Cc1ccccc1)C2=O)OCO4
3. COc1cc2c(cc1OC)[C@H]1C(=O)c3cc4c(cc3[C@H]1N(CCCBr)C2=O)OCO4

Resp:
[21.7, 0.38, 0.04]

---

I'd be grateful if you could share measured log10(GI50) for these entries.
assay: Cytotoxicity in prostate DU-145 cell line.; type: functional; conditions: Homo sapiens
Reminder: these figures are log10 of reported GI50, in nM before transformation.

CCCN1C(=O)c2cc(OC)c(OC)cc2[C@H]2C(=O)c3cc4c(cc3[C@H]21)OCO4
2.49
COc1cc2c(cc1OC)[C@H]1C(=O)c3cc4c(cc3[C@H]1N(CC#N)C2=O)OCO4
2.93
COc1cc2c(cc1OC)[C@H]1C(=O)c3cc4c(cc3[C@H]1N(CCCBr)C2=O)OCO4
1.48

Kindly give each listed record's log10(GI50).
1. COc1cc2c(cc1OC)[C@H]1C(=O)c3cc4c(cc3[C@H]1N(CCCN=[N+]=[N-])C2=O)OCO4
2. COc1cc2c(cc1OC)[C@H]1C(=O)c3c(ccc4ccccc34)[C@H]1N(CCCBr)C2=O

Resp:
1: 2.52; 2: 3.39

Hello, I would appreciate it if you could give log10(GI50) for each entry below.
1. CCCN1Cc2cc(OC)c(OC)cc2[C@@H]2[C@H]1c1cc3c(cc1[C@@H]2O)OCO3
2. CCCC[n+]1cc2cc(OC)c(OC)cc2c2c1-c1cc3c(cc1C2)OCO3.[Cl-]

Resp:
1: 4.53; 2: 3.43

---

Assignment: determine reported GI50 for the given molecules.
assay: Cytotoxicity in breast MDA-MB-435 cell line.; format: functional; conditions: Homo sapiens
Give bare numbers, in nM.

Some molecules with recorded GI50:
CCCC[n+]1cc2cc(OC)c(OC)cc2c2c1-c1cc3c(cc1C2)OCO3.[Cl-]
1370
COc1cc2c(cc1OC)[C@H]1C(=O)c3cc4c(cc3[C@H]1N(CC#N)C2=O)OCO4
9040
CCCN1Cc2cc(OC)c(OC)cc2[C@@H]2[C@H]1c1cc3c(cc1[C@@H]2O)OCO3
5800
COc1cc2c(cc1OC)[C@H]1C(=O)c3cc4c(cc3[C@H]1N(CCCCl)C2=O)OCO4
330
CCCCN1C(=O)c2cc(OC)c(OC)cc2[C@H]2C(=O)c3cc4c(cc3[C@H]21)OCO4
1600
COc1cc2c(cc1OC)[C@H]1C(=O)c3cc4c(cc3[C@H]1N(CCCBr)C2=O)OCO4
150
COc1cc2c(cc1OC)[C@H]1C(=O)c3c(ccc4ccccc34)[C@H]1N(CCCBr)C2=O
2250

Req: Supply measured GI50 of "C/C=C(/C=O)CCN1C(=O)c2cc(OC)c(OC)cc2[C@H]2C(=O)c3cc4c(cc3[C@H]21)OCO4" in your reply.
Resp: 4460

---

assay: Cytotoxicity in breast MDA-MB-435 cell line.; format: functional; conditions: Homo sapiens
I'd appreciate it if you could supply GI50 values for the items below.
Answers are plain numbers, in µM.

CCC[n+]1cc2cc(OC)c(OC)cc2c2c1-c1cc3c(cc1C2)OCO3.[Cl-]
3.37
CCCN1C(=O)c2cc(OC)c(OC)cc2[C@H]2C(=O)c3cc4c(cc3[C@H]21)OCO4
1.1
COc1cc2c(cc1OC)[C@H]1C(=O)c3cc4c(cc3[C@H]1N(CC(F)(F)F)C2=O)OCO4
7.6

Req: Provide GI50 value for the following compound: "CCOC(=O)CCCN1C(=O)c2cc(OC)c(OC)cc2[C@H]2C(=O)c3cc4c(cc3[C@H]21)OCO4"
Resp: 16.5

---

assay: Cytotoxicity in lung HOP-62 cell line.; type: functional; conditions: Homo sapiens
Threshold 800 nM: GI50 strictly smaller gives Satisfied, otherwise Not satisfied.

Worked examples, 3 compounds total:
C/C=C(/C=O)CCN1C(=O)c2cc(OC)c(OC)cc2[C@H]2C(=O)c3cc4c(cc3[C@H]21)OCO4
Satisfied
COc1cc2c(cc1OC)[C@H]1C(=O)c3cc4c(cc3[C@H]1N(CC(F)(F)F)C2=O)OCO4
Not satisfied
COc1cc2c(cc1OC)[C@H]1C(=O)c3c(ccc4ccccc34)[C@H]1N(CCCCl)C2=O
Not satisfied

Req: Is it true that GI50 reported for "CCCN1C(=O)c2cc(OC)c(OC)cc2[C@H]2C(=O)c3cc4c(cc3[C@H]21)OCO4" is less than 800 nM?
Resp: Satisfied

Req: Consider the compound "CCCN1Cc2cc(OC)c(OC)cc2[C@@H]2[C@H]1c1cc3c(cc1[C@@H]2O)OCO3" . Is its GI50 strictly less than 800 nM?
Resp: Not satisfied

Req: Say whether its GI50 is strictly beneath 800 nM. Entry: "COc1cc2c(cc1OC)[C@H]1C(=O)c3cc4c(cc3[C@H]1N(CCCBr)C2=O)OCO4"
Resp: Satisfied

Req: Hello, is GI50 of the following compound strictly smaller than 800 nM? "COc1cc2c(cc1OC)[C@H]1C(=O)c3cc4c(cc3[C@H]1N(CCCN=[N+]=[N-])C2=O)OCO4"
Resp: Satisfied

---

experiment: Cytotoxicity in colon HCT116 cell line.; assay type: functional; details: Homo sapiens, HCT-116
endpoint-label: GI50 (nM)
Numbers only, in nM.

COc1cc2c(cc1OC)[C@H]1C(=O)c3cc4c(cc3[C@H]1N(CC(F)(F)F)C2=O)OCO4
14400
COC(=O)CCCN1C(=O)c2cc(OC)c(OC)cc2[C@H]2C(=O)c3cc4c(cc3[C@H]21)OCO4
340
CCCN1Cc2cc(OC)c(OC)cc2[C@@H]2[C@H]1c1cc3c(cc1[C@@H]2O)OCO3
17800
COc1cc2c(cc1OC)[C@H]1C(=O)c3cc4c(cc3[C@H]1N(CC#N)C2=O)OCO4
600
CCCC[n+]1cc2cc(OC)c(OC)cc2c2c1-c1cc3c(cc1C2)OCO3.[Cl-]
1580

Required: GI50, one value per compound below.
1. COc1cc2c(cc1OC)[C@H]1C(=O)c3cc4c(cc3[C@H]1N(Cc1ccccc1)C2=O)OCO4
2. CCC[n+]1cc2cc(OC)c(OC)cc2c2c1-c1cc3c(cc1C2)OCO3.[Cl-]
3. COc1cc2c(cc1OC)[C@H]1C(=O)c3cc4c(cc3[C@H]1N(CCCN=[N+]=[N-])C2=O)OCO4

Resp:
540
3550
400
